EXPERIMENT NOTES: in vivo
MEASUREMENT PARAMETERS: rat, po, 21 mg/kg
PROPERTY NAME: Cmax (ng/mL)
Respond with the bare value in ng/mL.

Lookup: Could you tell me which Cmax is on file for CC(C)C(=O)c1c(C(C)C)nn2ccccc12 ?
Found: 325

###

EXPERIMENT NOTES: in vivo
MEASUREMENT PARAMETERS: rat, ip, 2.5 mg/kg
PROPERTY NAME: Cmax (ng/mL)
Respond with the bare value in ng/mL.

Lookup: Could you tell me which Cmax is on file for CC(C)C(=O)c1c(C(C)C)nn2ccccc12 [Ibudilast] ?
Found: 125

Sourced from patent US7534806B2
